READOUT NAME: melting point

MOLECULE: CCOP(=O)(Cc1ccc(NC(=O)CCc2sc(-n3cnc4ccccc43)nc2-c2ccc(Cl)cc2)cc1)OCC
melting point: 150 to 151 °C

MOLECULE: CCOP(=O)(Cc1ccc(NC(=O)CCCc2oc(N3CCN(c4ccccn4)CC3)nc2-c2ccc(Cl)cc2)cc1)OCC
melting point: 114 to 116 °C

MOLECULE: NC(=O)CCc1oc(Sc2ncccn2)nc1-c1ccc(Cl)cc1 [Example 33]
melting point: 194 to 195 °C

Q: Given the entry O=C(CCc1oc(-n2cnc3ccccc32)nc1-c1ccc(Cl)cc1)N1CCN(c2ccccn2)CC1 [Example 93] , report its measured melting point.
Ans: 174 to 176 °C
